Target: μ opiate receptor (MOR) (Rattus norvegicus)
Construct: from tissue; host or cells: striatal tissue (membrane preparation)
Sequence (P33535 whole entry): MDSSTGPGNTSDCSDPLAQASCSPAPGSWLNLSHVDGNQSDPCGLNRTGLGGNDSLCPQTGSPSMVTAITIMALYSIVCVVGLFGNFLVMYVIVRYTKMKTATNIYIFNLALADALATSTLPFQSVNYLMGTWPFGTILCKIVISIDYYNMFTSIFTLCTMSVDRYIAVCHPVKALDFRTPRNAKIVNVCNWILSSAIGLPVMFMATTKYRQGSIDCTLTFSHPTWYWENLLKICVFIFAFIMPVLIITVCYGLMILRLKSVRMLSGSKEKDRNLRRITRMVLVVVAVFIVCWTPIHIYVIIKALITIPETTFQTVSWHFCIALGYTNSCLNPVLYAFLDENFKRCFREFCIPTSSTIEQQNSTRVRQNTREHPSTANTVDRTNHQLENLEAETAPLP
Test: MOR agonist activity, [35S]GTPγS binding assay using striatal membranes
Type: biochemical
Settings: 1 μM compound, striatal membranes
value type: [35S]GTPγS binding to Gαo, FLNA-binding compound as agonist 1 μM

[
  {
    "compound": "CC1CN(CC(O)COc2ccc(Br)c(F)c2)CC(C)O1 (centres unmarked)",
    "measured result": "283.6%"
  },
  {
    "compound": "CC1CN(CC(O)COc2ccccc2Br)CC(C)O1 (centres unmarked)",
    "measured result": "223.8%"
  },
  {
    "compound": "COc1ccc(OCC(O)CN2CCCc3ccccc32)cc1 (centres unmarked)",
    "measured result": "254.4%"
  },
  {
    "compound": "CC1CCC(C(C)C)C(OCC(O)CN2CCCc3ccccc32)C1 (centres unmarked)",
    "measured result": "110.4%"
  },
  {
    "compound": "CC1CCN(CC(O)COC2CC(C)CCC2C(C)C)CC1 (centres unmarked)",
    "measured result": "190.9%"
  },
  {
    "compound": "COc1ccc(OCC(O)CN2CCc3cc4c(c(OC)c3C2)OCO4)cc1 (centres unmarked)",
    "measured result": "195.3%"
  },
  {
    "compound": "CC1CCC(C(C)C)C(OCC(O)Cn2cccc2)C1 (centres unmarked)",
    "measured result": "234.5%"
  },
  {
    "compound": "CC1CCC(C(C)C)C(OCC(O)CN2CCOc3ccccc32)C1 (centres unmarked)",
    "measured result": "195.6%"
  },
  {
    "compound": "CC1CCC(C(C)C)C(OCC(O)CN2CCN(Cc3ccccc3)CC2)C1 (centres unmarked)",
    "measured result": "305.1%"
  },
  {
    "compound": "OC(CN1CCc2ccccc2C1)OCc1ccc(Br)c(F)c1 (centres unmarked)",
    "measured result": "192.1%"
  },
  {
    "compound": "CC1CCC(C(C)C)C(OCC(O)CN2CC(C)OC(C)C2)C1 (centres unmarked)",
    "measured result": "324.5%"
  },
  {
    "compound": "COc1ccc(OCC(O)CN2CCN(Cc3ccccc3)CC2)cc1 (centres unmarked)",
    "measured result": "325.7%"
  },
  {
    "compound": "CC1CCC(C(C)C)C(OCC(O)CN2CCSC2)C1 (centres unmarked)",
    "measured result": "199.4%"
  },
  {
    "compound": "CC1CCC(C(C)C)C(OCC(O)CN2CCN(C)CC2)C1 (centres unmarked)",
    "measured result": "126.4%"
  },
  {
    "compound": "CC1CN(CC(O)COc2ccc(Br)c(Cl)c2)CC(C)O1 (centres unmarked)",
    "measured result": "274.2%"
  },
  {
    "compound": "CC1CCC(C(C)C)C(OCC(O)CN2CCCCCC2)C1 (centres unmarked)",
    "measured result": "164.8%"
  },
  {
    "compound": "CC1CCC(C(C)C)C(OCC(O)CN2CCCCCCC2)C1 (centres unmarked)",
    "measured result": "174.9%"
  },
  {
    "compound": "CC1CN(CC(O)COc2cccc(C(F)(F)F)c2)CC(C)O1 (centres unmarked)",
    "measured result": "386.6%"
  },
  {
    "compound": "CC1CCCC(OCC(O)CN2CC(C)OC(C)C2)C1 (centres unmarked)",
    "measured result": "275.3%"
  },
  {
    "compound": "CC1CCC(C(C)C)C(OCC(O)CN2CCc3ccccc3C2)C1 (centres unmarked)",
    "measured result": "149.0%"
  }
]

Measured values drawn from patent US20100279997A1 for this set.
